The measurements presented in this section are drawn from patent US20140348861A1.

# Therapeutic activity = % reduction in cumulative clinical disability score per record follows
System: SJL/J mice exhibiting MBP (85-109) induced relapsing remitting form of EAE
Assay: Therapeutic activity in MBP (85-109) induced relapsing remitting EAE, treatment from day 11
Type: in vivo
Conditions: synthetic peptides; SJL/J mice, RR EAE; 0.1 mg daily for two weeks from day 11 post-immunization
Non-standard residues stand in square brackets, D forms with d. No end group written: not given here. β3hA = C[C@H](N)CC(=O)O
quantity: Therapeutic activity = % reduction in cumulative clinical disability score (%)

[
  {
    "substance": "KVEAYKAAβ^3Aβ^3Aβ^3 (KVEAYKA[β3hA][β3hA][β3hA]) [Analog S19]",
    "units label": "%",
    "experimental value": 37.3262
  },
  {
    "substance": "KVEAYK (Peptide analog) [Analog J5b, reference compound]",
    "units label": "%",
    "experimental value": 20.43
  },
  {
    "substance": "KVEAYKAAAβ^3Aβ^3 (KVEAYKAA[β3hA][β3hA]) [Analog S18]",
    "units label": "%",
    "experimental value": 27.38
  },
  {
    "substance": "EKPKVEβAβYβKβAβAβAβAβPAβ [Analog S49]",
    "units label": "%",
    "experimental value": 50.27
  },
  {
    "substance": "KVEAYKAAAAβ [Analog S55]",
    "units label": "%",
    "experimental value": 28.56
  },
  {
    "substance": "KVEAYKβ [Analog S66]",
    "units label": "%",
    "experimental value": 21.93
  },
  {
    "substance": "KVEAYKβAβAβAβAβ [Analog S59]",
    "units label": "%",
    "experimental value": 44.28
  }
]
